Parameter Average Relative Light Unit Values: see the listing below.
- Tested on: ATPase activity endogenous to L929 cell lysate
- Assay Notes: Detergent inhibition of ATPase endogenous to L929 cell lysate (ATP remaining by luciferase luminescence, 22° C.)
- Format: biochemical
- Stated Conditions: 1.0% detergent, 5 min

Compound	Average Relative Light Unit Values (rlu)
CCCCCCCCCCCC[N+](C)(C)Cc1ccccc1.[Br-] [BDDABr, Benzyldimethyldodecylammonium bromide]	0.49
C[C@H](CCC(=O)N(CCCNC(=O)[C@H](O)[C@@H](O)[C@H](O)[C@H](O)CO)CCCNC(=O)[C@H](O)[C@@H](O)[C@H](O)[C@H](O)CO)[C@H]1CC[C@H]2[C@@H]3[C@H](O)C[C@@H]4C[C@H](O)CC[C@]4(C)[C@H]3C[C@H](O)[C@]12C [BIGCHAP, N,N-bis(3-D-Gluconamidopropyl)cholamide]	7576.05
CCCCCCCCCCCC[N+](C)(C)CCCS(=O)(=O)[O-]	7861.36
CCCCCCCCCCCC[N+](C)(C)C.[Br-] [DTAB, dodecyltrimethylammonium bromide]	800.61

---

- System: ATPase activity endogenous to L929 cell lysate
- Assay Notes: Detergent inhibition of ATPase endogenous to L929 cell lysate (ATP remaining by luciferase luminescence, 22° C.)
- Format: biochemical
- Stated Conditions: 0.05% detergent, 5 min
Response key: 1 (yes) means Average Relative Light Unit Values >= 6000 rlu; 0 (no) means Average Relative Light Unit Values < 6000 rlu.

Compound	Target Entity	Qualitative Label
CCCCCCCCCCCC[N+](C)(C)CCCS(=O)(=O)[O-]	ATPase activity endogenous to L929 cell lysate	1 (yes)
C[C@H](CCC(=O)NCCC[N+](C)(C)CCCS(=O)(=O)[O-])[C@H]1CC[C@H]2[C@@H]3[C@H](O)C[C@@H]4C[C@H](O)CC[C@]4(C)[C@H]3C[C@H](O)[C@]12C	ATPase activity endogenous to L929 cell lysate	1 (yes)
CCCCCCCCCCCC[N+](C)(C)Cc1ccccc1.[Br-] [BDDABr, Benzyldimethyldodecylammonium bromide]	ATPase activity endogenous to L929 cell lysate	1 (yes)
CCCCCCCCCCCCOS(=O)(=O)[O-].[Na+] [SDS, Sodium dodecyl sulfate]	ATPase activity endogenous to L929 cell lysate	0 (no)
C[C@H](CCC(=O)N(CCCNC(=O)[C@H](O)[C@@H](O)[C@H](O)[C@H](O)CO)CCCNC(=O)[C@H](O)[C@@H](O)[C@H](O)[C@H](O)CO)[C@H]1CC[C@H]2[C@@H]3[C@H](O)C[C@@H]4C[C@H](O)CC[C@]4(C)[C@H]3C[C@H](O)[C@]12C [BIGCHAP, N,N-bis(3-D-Gluconamidopropyl)cholamide]	ATPase activity endogenous to L929 cell lysate	1 (yes)
CCCCCCCCCCCCCCCC[N+](C)(C)C.[Br-] [CTAB, Cetyltrimethylammonium bromide]	ATPase activity endogenous to L929 cell lysate	1 (yes)
C[C@H](CCC(=O)[O-])[C@H]1CC[C@H]2[C@@H]3CC[C@@H]4C[C@H](O)CC[C@]4(C)[C@H]3C[C@H](O)[C@]12C.[Na+] [Deoxycholate, sodium deoxycholate]	ATPase activity endogenous to L929 cell lysate	0 (no)
C[C@H](CCC(=O)NCCC[N+](C)(C)CC(O)CS(=O)(=O)[O-])[C@H]1CC[C@H]2[C@@H]3[C@H](O)C[C@@H]4C[C@H](O)CC[C@]4(C)[C@H]3C[C@H](O)[C@]12C (stereo partly drawn)	ATPase activity endogenous to L929 cell lysate	1 (yes)
CCCCCCCCCCCC[N+](C)(C)C.[Br-] [DTAB, dodecyltrimethylammonium bromide]	ATPase activity endogenous to L929 cell lysate	1 (yes)
